assay.method.text: Blood clearance in Sprague-Dawley rat at 1 mg/kg, iv
Assay type: ADME, organism-based
Design: dose 1 mg/kg, route intravenous
measured.property: clearance (mL/min/kg)

[[record]]
smiles_string = "O=C(Nc1ccc(-c2nnc(NCCCCN3CCOCC3)o2)cc1)c1ccccc1F"
measured_property = "clearance"
test_value = 37

[[record]]
smiles_string = "O=C(Nc1ccc(-c2nnc(NCCCCN3CCOCC3)o2)c(F)c1)c1ccccc1F"
measured_property = "clearance"
test_value = 54

[[record]]
smiles_string = "O=C(Nc1ccc(-c2nnc(NCCCCN3CCCCC3)o2)cc1)c1ccccc1F"
measured_property = "clearance"
test_value = 42


* * *

assay.method.text: Oral bioavailability in Sprague-Dawley rat at 3 mg/kg
Format: ADME, organism-based
measurement.setup: in vivo
measured.property: bioavailability (%)

[[record]]
smiles_string = "O=C(Nc1ccc(-c2nnc(NCCCCN3CCOCC3)o2)c(F)c1)c1ccccc1F"
test_value = 20

[[record]]
smiles_string = "O=C(Nc1ccc(-c2nnc(NCCCCN3CCOCC3)o2)cc1)c1ccccc1F"
test_value = 22


* * *

assay.method.text: Ratio of drug level in brain to blood in Lister Hooded rat at 3 mg/kg, po after 3 hrs
Type: ADME, organism-based
Set-up: dose 3 mg/kg, route oral
measured.property: Kp at 3 h
Respond numerically, and do not add a unit to the figure.

Return value of Kp at 3 h for input O=C(Nc1ccc(-c2nnc(NCCCCN3CCCCC3)o2)cc1)c1ccccc1F , no commentary.
0.99

* * *

Tested on: Liver
assay.method.text: Clearance in human liver assessed per gram of tissue
Format: ADME, tissue-based
measured.property: CLH

Return value of CLH for input O=C(Nc1ccc(-c2nnc(NCCCCN3CCCCC3)o2)cc1)c1ccccc1F , no commentary.
0.5 mL/min/g

Return value of CLH for input O=C(Nc1ccc(-c2nnc(NCCCCN3CCOCC3)o2)c(F)c1)c1ccccc1F , no commentary.
< 0.5 mL/min/g

Return value of CLH for input O=C(Nc1ccc(-c2nnc(NCCCCN3CCOCC3)o2)cc1)c1ccccc1F , no commentary.
< 0.5 mL/min/g

* * *

System: Liver
assay.method.text: Clearance in rat liver assessed per gram of tissue
Format: ADME, tissue-based
measurement.setup: in vivo
measured.property: CLH

[[record]]
smiles_string = "O=C(Nc1ccc(-c2nnc(NCCCCN3CCOCC3)o2)c(F)c1)c1ccccc1F"
test_value = "< 0.5 mL/min/g"

[[record]]
smiles_string = "O=C(Nc1ccc(-c2nnc(NCCCCN3CCCCC3)o2)cc1)c1ccccc1F"
test_value = "< 0.5 mL/min/g"


Next compound, CLH to be filled in.
Return value of CLH for input O=C(Nc1ccc(-c2nnc(NCCCCN3CCOCC3)o2)cc1)c1ccccc1F , no commentary.
0.8 mL/min/g

* * *

assay.method.text: Tmax in po dosed rat
Type: ADME, organism-based
measurement.setup: in vivo
measured.property: Tmax (h)
Please reply with the bare figure in h and do not write the unit itself.

Return value of Tmax for input COc1cc(NC(=O)c2ccccc2F)ccc1-c1nnc(NCCCN2CCCCC2)o1 , no commentary.
3

* * *

System: Blood
assay.method.text: Drug level in novel object recognition model of rat blood at 0.1 mg/kg, po
Type: ADME, organism-based
Design: dose 0.1 mg/kg, route oral
measurement.setup: in vivo, read-out: Drug uptake
measured.property: concentration (nM)
Please reply with the bare figure in nM and do not write the unit itself.

Return value of concentration for input O=C(Nc1ccc(-c2nnc(NCCCCN3CCOCC3)o2)c(F)c1)c1ccccc1F , no commentary.
10.5
